# Tested on: Mycobacterium kansasii 6509/96
# test.description: MIC, micro method in Šula's semisynthetic medium, M. kansasii clinical isolate
# Assay type: cell-based
# condition.details: 6509/96, 504 h, read-out: MIC M. kansasii 6509/96
experimental.readout: MIC

INSERT INTO assay_data (structure_string, observed_measurement) VALUES
  ('O=[N+]([O-])c1cc(-c2nnc(NCc3ccc(Cl)cc3)o2)cc([N+](=O)[O-])c1', '0.25 µM'),
  ('CCCCCCCCCCCCCCNC(=O)NNC(=O)c1cc([N+](=O)[O-])cc([N+](=O)[O-])c1', '8 µM'),
  ('CCCCCCCCCCCCCCNc1nnc(-c2cc([N+](=O)[O-])cc([N+](=O)[O-])c2)o1', '1 µM'),
  ('CCCCCCNC(=O)NNC(=O)c1cc([N+](=O)[O-])cc([N+](=O)[O-])c1', '1 µM'),
  ('CCCCCCCNC(=O)NNC(=O)c1cc([N+](=O)[O-])cc([N+](=O)[O-])c1', '1 µM'),
  ('COc1ccc(CNc2nnc(-c3cc([N+](=O)[O-])cc([N+](=O)[O-])c3)o2)cc1', '≤ 0.03 µM'),
  ('CCCCCCCCCCCCNC(=O)NNC(=O)c1cc([N+](=O)[O-])cc([N+](=O)[O-])c1', '4 µM'),
  ('CCCNC(=O)NNC(=O)c1cc([N+](=O)[O-])cc([N+](=O)[O-])c1', '16 µM');

====

Catalogue of log10(MIC) readings, one per entry.
# Test system: Mycobacterium kansasii 6509/96
# test.description: MIC, micro method in Šula's semisynthetic medium, M. kansasii clinical isolate
# Type: cell-based
# condition.details: 6509/96, 504 h, read-out: MIC M. kansasii 6509/96
experimental.readout: log10(MIC) (log10 of the value in µM)

INSERT INTO measurements (structure_string, measured_on, observed_measurement) VALUES
  ('CCCCCNc1nnc(-c2cc([N+](=O)[O-])cc([N+](=O)[O-])c2)o1', 'Mycobacterium kansasii 6509/96', -0.30),
  ('O=[N+]([O-])c1cc(-c2nnc(NCc3ccccc3)o2)cc([N+](=O)[O-])c1', 'Mycobacterium kansasii 6509/96', 0.00),
  ('CCCCCCCCCCCNC(=O)NNC(=O)c1cc([N+](=O)[O-])cc([N+](=O)[O-])c1', 'Mycobacterium kansasii 6509/96', 0.60),
  ('CCCCCCCCCCCCCCCCCNc1nnc(-c2cc([N+](=O)[O-])cc([N+](=O)[O-])c2)o1', 'Mycobacterium kansasii 6509/96', 1.51),
  ('CCCCCCCCCCCCNc1nnc(-c2cc([N+](=O)[O-])cc([N+](=O)[O-])c2)o1', 'Mycobacterium kansasii 6509/96', 0.00),
  ('O=[N+]([O-])c1cc(-c2nnc(NCc3ccc(Cl)cc3)s2)cc([N+](=O)[O-])c1', 'Mycobacterium kansasii 6509/96', -0.90),
  ('CCCNc1nnc(-c2cc([N+](=O)[O-])cc([N+](=O)[O-])c2)o1', 'Mycobacterium kansasii 6509/96', 1.20),
  ('CCCCCCCCCCCCCNC(=O)NNC(=O)c1cc([N+](=O)[O-])cc([N+](=O)[O-])c1', 'Mycobacterium kansasii 6509/96', 0.60);
